ASSAY SUMMARY: qHTS assay to identify small molecule agonists of the sonic hedgehog signaling (Shh) pathway - cell viability counter screen (AID 1259366); also: nearly all actives have a fitted effect of over 50% in size
EXPERIMENTAL CONDITIONS: NIH/3T3 Gli1-Luc viability, CellTiter-Fluor, 24 h; series mostly up to 92.4 µM
Records with an inconclusive call do not appear. Activity calls are given as the source filed them. Calls follow the shape of the dose curve; as a rule, active = well fitted cell-killing curve with a large enough effect in the repeat runs; inconclusive = weak or mixed curves, or effect the other way; inactive = flat fitted curve, though single readings scatter.
Hello, when you answer, please use one of the following outcomes: active, inactive

## Input Tell me the assay call for O=C=Nc1ccc(Cc2ccc(N=C=O)cc2)cc1 please.
## Output inactive

## Input // param item: CCCCc1oc2ccccc2c1C(=O)c1cc(I)c(OCCN(CC)CC)c(I)c1 ; yields the recorded call
## Output active

## Input Which outcome was assigned to C#C[C@]1(O)CC[C@H]2[C@@H]3CCc4cc(OC)ccc4[C@H]3CC[C@@]21C in this test?
## Output inactive

## Input Tell me the assay call for CCCCNS(=O)(=O)c1ccccc1 please.
## Output inactive

## Input What did this assay record as the result for CC(C)OC=O ?
## Output inactive

## Input Could you kindly confirm the outcome this assay logged for O=C(OCc1ccccc1)c1ccccc1O ?
## Output inactive

## Input Record request — test call for CCOCCOCCO
## Output inactive

---

ASSAY SUMMARY: qHTS assay to identify small molecule antagonists of the sonic hedgehog signaling (Shh) pathway - cell viability counter screen (AID 1259367); also: nearly all actives have a fitted effect of over 55% in size
EXPERIMENTAL CONDITIONS: NIH/3T3 Gli1-Luc viability, CellTiter-Fluor, 24 h; series mostly up to 92.4 µM
Inconclusive results are not listed. Activity calls are given as the source filed them. Calls come from the whole dose curve; as a rule, active = well fitted cell-killing curve with a large enough effect in the repeat runs; inconclusive = weak or mixed curves, or effect the other way; inactive = no such curve, though single readings can be large or run the other way.
Pick from active, inactive when you respond.

## Input Tell me the recorded outcome of this test for CC(C(=O)O)c1cccc(C(=O)c2ccccc2)c1 (stereo not given) .
## Output inactive

## Input Which outcome was assigned to CC1=CCC(C(C)(C)O)CC1 (stereo not given) in this test?
## Output inactive

## Input Outcome? NC=O
## Output inactive

## Input State the result this test recorded for COc1ccc(C(=O)CC(=O)c2ccc(C(C)(C)C)cc2)cc1 .
## Output inactive

## Input Please share the test call associated with C[C@]12CC[C@H]3[C@@H](CCC4=CC(=O)CC[C@@]43C)[C@@H]1CC[C@@H]2C(=O)CO .
## Output inactive

## Input Status in this test for c1ccc2sc(SSN3CCOCC3)nc2c1 ?
## Output active

## Input Could you check what this test reported for OCCO ?
## Output inactive

## Input Test call for this compound, please: COc1cc([C@@H]2c3cc4c(cc3[C@H](O)[C@H]3COC(=O)[C@H]23)OCO4)cc(OC)c1OC
## Output active

## Input Assay outcome for CCCCC/C=C/C=C/C=O : what was it?
## Output inactive

## Input Call for entry CCCCC(CC)COC(=O)c1ccc(N(C)C)cc1 (stereo not given) :
## Output inactive

## Input Hello, I am checking results. What call was entered for CCCCOCCOCCOCCO ?
## Output inactive

## Input Record request — test call for O=C(COc1ccc(Cl)cc1)N1CCN(Cc2ccc3c(c2)OCO3)CC1
## Output inactive

## Input Record lookup: outcome of this test for CN(C)CCN(Cc1cccs1)c1ccccn1 ?
## Output inactive

## Input Record request — test call for O=C1c2cccc(O)c2C(=O)c2c(O)cccc21
## Output inactive

## Input What call does the record list for O=C(/C=C/C=C/c1ccc2c(c1)OCO2)N1CCCCC1 ?
## Output inactive

## Input Status in this test for c1ccc2cc(Nc3ccc(Nc4ccc5ccccc5c4)cc3)ccc2c1 ?
## Output inactive

## Input What is the recorded call for this compound in the test? C/C=C/C(=O)O
## Output inactive

## Input What outcome does the record of this test show for CC(C)=CCC/C(C)=C\CO ?
## Output inactive

## Input Please let me know the test result on file for CCCC(=O)O .
## Output inactive

## Input Called result for CN1C(C(=O)Nc2ccccn2)=C(O)c2ccccc2S1(=O)=O
## Output inactive

## Input What call does the record list for O=C(/C=C/c1ccccc1)OCc1ccccc1 ?
## Output inactive

## Input Tell me the recorded outcome of this test for c1cc(N(CC2CO2)CC2CO2)ccc1OCC1CO1 (stereo not given) .
## Output active

## Input Entry c1cc(-c2ccncc2)ccn1 : call = ?
## Output inactive

## Input Any idea what this test logged for c1ccc(Nc2ccccc2)cc1 ?
## Output inactive

## Input So what was the verdict on CCCc1c(OCCCCc2nn[nH]n2)ccc(C(C)=O)c1O in this test?
## Output inactive

## Input GET /call?item= CCC(C)c1ccccc1O (stereo not given) returns the recorded outcome of this test.
## Output inactive

## Input Tell me the recorded outcome of this test for Cn1cnc([N+](=O)[O-])c1Sc1ncnc2nc[nH]c12 .
## Output active

## Input // return assay outcome for O=CCc1ccccc1
## Output inactive

## Input Answer briefly: the call reported for CC(C)=CCCC(C)CCO (stereo not given) in this assay.
## Output inactive

## Input Each compound tested received a call. Report the one for OC[C@H]1O[C@@H]2O[C@H]3[C@H](O)[C@@H](O)[C@@H](O[C@H]4[C@H](O)[C@@H](O)[C@@H](O[C@H]5[C@H](O)[C@@H](O)[C@@H](O[C@H]6[C@H](O)[C@@H](O)[C@@H](O[C@H]7[C@H](O)[C@@H](O)[C@@H](O[C@H]8[C@H](O)[C@@H](O)[C@@H](O[C@H]1[C@H](O)[C@H]2O)O[C@@H]8CO)O[C@@H]7CO)O[C@@H]6CO)O[C@@H]5CO)O[C@@H]4CO)O[C@@H]3CO .
## Output inactive

## Input I'd appreciate the recorded outcome for CN(C)C(=N)N=C(N)N from this test.
## Output inactive

## Input Field: outcome | Entry: O=C(c1ccccc1)c1ccccc1O
## Output inactive

## Input How was O=[N+]([O-])c1ccc2c(c1)Cc1ccccc1-2 classified in this test?
## Output inactive

## Input Record lookup: outcome of this test for Cc1c(OCC(F)(F)F)ccnc1CS(=O)c1nc2ccccc2[nH]1 (stereo not given) ?
## Output inactive

## Input Just curious, what result did OC(CCl)CCl get here?
## Output inactive

## Input // param item: C=C(C)C1CC=C(C)CC1 (stereo not given) ; yields the recorded call
## Output inactive

## Input Could you kindly confirm the outcome this assay logged for COc1ccc(OC)c(C(O)CNC(=O)CN)c1 (stereo not given) ?
## Output inactive

## Input Record request — test call for CC(C)OC=O
## Output inactive

## Input Give the logged outcome of this assay for the following compound: CCOC(=O)C(C#N)=C(c1ccccc1)c1ccccc1
## Output inactive

## Input Which outcome did this test record for the compound CCCCCCCCCCCO ?
## Output inactive

## Input Identify the outcome logged in this assay for the compound shown: COc1ccccc1/C=C/C=O
## Output inactive

## Input Assay result, entry O=P(O)(O)O — outcome?
## Output inactive

## Input GET /call?item= O=C(OCc1ccccc1)c1ccccc1O returns the recorded outcome of this test.
## Output inactive

## Input Which outcome was assigned to c1ccncc1 in this test?
## Output inactive

## Input // param item: COC(C)COC(C)COC(C)CO (stereo not given) ; yields the recorded call
## Output inactive

## Input Could you kindly confirm the outcome this assay logged for C=CC(C)(CCC=C(C)C)OC(C)=O (stereo not given) ?
## Output inactive

## Input Which outcome was assigned to Nc1ncnc2nc[nH]c12 in this test?
## Output inactive

## Input What was the test verdict on O=C(Nc1ccc(Cl)cc1)Nc1ccc(Cl)c(Cl)c1 ?
## Output inactive

## Input Called result for C[Si](C)(C)O[Si](C)(C)C
## Output inactive

## Input Assay result, entry Cc1cccc([N+](=O)[O-])c1C — outcome?
## Output inactive

## Input Dear colleague, could you share the recorded outcome for Brc1cc(Oc2cc(Br)c(Br)c(Br)c2Br)c(Br)c(Br)c1Br when you have a moment?
## Output inactive

## Input Give the logged outcome of this assay for the following compound: CN(C)c1nc(N(C)C)nc(N(C)C)n1
## Output inactive

## Input Record lookup: outcome of this test for Cc1ccc2c(n1)Oc1ccc(C(C)C(=O)OCC(=O)N(C)C)cc1C2 (stereo not given) ?
## Output inactive

## Input Short answer needed: outcome of this test for O=C=Nc1ccc(Cc2ccc(N=C=O)cc2)cc1 ?
## Output inactive

## Input I would be grateful if you could indicate the recorded call for Nc1ccc(Cl)cc1Cl .
## Output inactive

---

ASSAY SUMMARY: Caspase-3/7 induction in HepG2 cells by small molecules, qHTS assay (AID 1346978); also: nearly all actives have a fitted effect of over 15% in size
EXPERIMENTAL CONDITIONS: HepG2 caspase-3/7 activation, Caspase-Glo luminescence, 17 h; series mostly up to 92.4 µM
Text: National Center for Advancing Translational Sciences [NCATS] NIH Chemical Genomics Center [NCGC] U.S. Environmental Protection Agency [EPA] National Institutes of Environmental Health Sciences [NIEHS] National Toxicology Program [NTP] Assay overview: Apoptosis is a process of programmed cell death and plays a central role in the development of multicellular organisms. […]
Inconclusive results are not listed. Calls of active or inactive are those of the source. The call rests on the fitted dose curve; in most records, active means well fitted activation curve with a large enough effect in the repeat runs; inconclusive means weak or mixed curves; inactive means flat fitted curve, though single readings scatter.
Response enum: active, inactive

## Input I'd appreciate the recorded outcome for O=C(/C=C/c1ccccc1)OCc1ccccc1 from this test.
## Output inactive

## Input Hi, sorry to bother you, what did the test record for CCCCNS(=O)(=O)c1ccccc1 ?
## Output inactive

## Input Assay result, entry O=C(COc1ccc(Cl)cc1)N1CCN(Cc2ccc3c(c2)OCO3)CC1 — outcome?
## Output inactive

## Input Can you look up the reported call for Nc1ncn([C@@H]2O[C@H](CO)[C@@H](O)[C@H]2O)c(=O)n1 for me?
## Output inactive

## Input Which outcome was assigned to c1ccc2sc(SSN3CCOCC3)nc2c1 in this test?
## Output inactive

## Input Dear colleague, could you share the recorded outcome for C#C[C@]1(O)CC[C@H]2[C@@H]3CCC4=Cc5oncc5C[C@]4(C)[C@H]3CC[C@@]21C when you have a moment?
## Output inactive

## Input Dear colleague, could you share the recorded outcome for O=C(Nc1ccc(Cl)cc1)Nc1ccc(Cl)c(Cl)c1 when you have a moment?
## Output inactive

## Input Could you kindly confirm the outcome this assay logged for COc1ccc(OC)c(C(O)CNC(=O)CN)c1 (configuration not stated) ?
## Output inactive

## Input In this assay, the call recorded for Cc1ncc[nH]1 was what?
## Output inactive

## Input Called result for S=C(NC1CCCCC1)NC1CCCCC1
## Output inactive

## Input Look up the recorded call for CC(C)OC=O in this test.
## Output inactive

## Input Outcome logged for O=C(c1ccccc1)c1ccc(O)cc1O in this assay:
## Output inactive

## Input Which outcome was entered for the molecule Nc1ncnc2nc[nH]c12 in this test?
## Output inactive

## Input Can you look up the reported call for O=CCCCC=O for me?
## Output inactive

## Input I would be grateful if you could indicate the recorded call for CN(C)c1nc(N(C)C)nc(N(C)C)n1 .
## Output inactive

## Input What did the test return for CC(C(=O)O)c1cccc(C(=O)c2ccccc2)c1 (configuration not stated) ?
## Output inactive

## Input Which outcome did this test record for the molecule Cc1cccc([N+](=O)[O-])c1C ?
## Output inactive

## Input Per the records of this test, what outcome belongs to C[C@]12CCC(=O)C=C1CC[C@@H]1[C@@H]2C(=O)C[C@@]2(C)[C@H]1CC[C@]2(O)C(=O)CO ?
## Output inactive

## Input Look up the recorded call for CC(=O)O[C@]1(C(C)=O)CC[C@H]2[C@@H]3C=C(Cl)C4=CC(=O)[C@@H]5C[C@@H]5[C@]4(C)[C@H]3CC[C@@]21C in this test.
## Output inactive

## Input For this molecule, state the assay outcome: C[Si](C)(C)O[Si](C)(C)C
## Output inactive

## Input For CC(=O)c1ccccn1 , which call appears in the assay record?
## Output inactive

## Input Any idea what this test logged for O=c1oc(=O)c2cc3c(=O)oc(=O)c3cc12 ?
## Output inactive

## Input What call does the record list for CC(C)Oc1ccc2c(=O)c(-c3ccccc3)coc2c1 ?
## Output inactive

## Input // outcome(item) with item = CNCCCC12CCC(c3ccccc31)c1ccccc12
## Output active

## Input Per the records of this test, what outcome belongs to O=C(OCc1ccccc1)c1ccccc1O ?
## Output inactive

## Input Check the results log: what was the call for COc1c(Cl)c(Cl)c(Cl)c(Cl)c1Cl ?
## Output inactive

## Input Recorded test call requested for O=C1c2cccc(O)c2C(=O)c2c(O)cccc21
## Output inactive
